experimental_system: T1, human ROR2 expressed on the cell surface (human, UniProt Q01974 34-943)
T1 construct: Endogenous ROR2 of human tumour cell lines; also called cell surface ROR2; ROR2 on tumour cell lines
T1 sequence (Q01974 34-943 limits assumed): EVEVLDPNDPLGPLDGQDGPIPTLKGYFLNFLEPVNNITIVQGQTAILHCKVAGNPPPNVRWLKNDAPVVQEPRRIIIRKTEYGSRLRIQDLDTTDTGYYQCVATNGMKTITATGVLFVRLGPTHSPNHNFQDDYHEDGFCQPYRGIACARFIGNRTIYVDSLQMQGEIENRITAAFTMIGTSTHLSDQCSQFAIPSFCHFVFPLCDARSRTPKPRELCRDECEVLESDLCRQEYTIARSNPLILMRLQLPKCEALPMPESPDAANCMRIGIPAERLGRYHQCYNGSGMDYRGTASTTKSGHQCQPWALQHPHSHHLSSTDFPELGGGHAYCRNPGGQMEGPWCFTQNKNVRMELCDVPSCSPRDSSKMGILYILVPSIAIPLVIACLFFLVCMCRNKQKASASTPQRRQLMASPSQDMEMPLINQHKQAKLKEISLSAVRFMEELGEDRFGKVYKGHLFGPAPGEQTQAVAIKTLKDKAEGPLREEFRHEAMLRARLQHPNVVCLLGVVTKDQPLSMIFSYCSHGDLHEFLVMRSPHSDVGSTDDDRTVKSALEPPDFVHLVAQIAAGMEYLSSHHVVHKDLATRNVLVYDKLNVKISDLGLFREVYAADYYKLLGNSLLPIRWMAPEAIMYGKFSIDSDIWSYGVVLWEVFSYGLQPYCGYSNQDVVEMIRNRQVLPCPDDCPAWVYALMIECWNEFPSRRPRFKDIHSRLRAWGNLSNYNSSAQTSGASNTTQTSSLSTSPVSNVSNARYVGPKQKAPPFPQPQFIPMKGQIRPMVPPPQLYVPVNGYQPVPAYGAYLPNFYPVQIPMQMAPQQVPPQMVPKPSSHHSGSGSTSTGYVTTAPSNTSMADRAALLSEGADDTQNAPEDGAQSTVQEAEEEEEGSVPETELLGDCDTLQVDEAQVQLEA
assay_comment: flow cytometry, U251 LUC cells (glioma)
Parameters: unit not given here
observed_property: binding intensity
// response body must contain only the number

Would you please look over these solved cases?
ROR2-23 full length human IgG1 antibody (antibody, V domains shown, The light chain of clone 023 is labelled kappa; also called clone #23; clone #023 IgG1) VH: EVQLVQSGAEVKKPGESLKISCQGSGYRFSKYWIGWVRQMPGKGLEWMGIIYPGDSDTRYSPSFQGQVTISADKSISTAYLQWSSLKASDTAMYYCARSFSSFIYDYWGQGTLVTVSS VL: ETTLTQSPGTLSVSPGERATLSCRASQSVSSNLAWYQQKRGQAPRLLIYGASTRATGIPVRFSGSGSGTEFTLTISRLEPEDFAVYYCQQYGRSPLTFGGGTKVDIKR ... 14
ROR2-241 full length human IgG1 antibody (antibody, V domains shown) VH: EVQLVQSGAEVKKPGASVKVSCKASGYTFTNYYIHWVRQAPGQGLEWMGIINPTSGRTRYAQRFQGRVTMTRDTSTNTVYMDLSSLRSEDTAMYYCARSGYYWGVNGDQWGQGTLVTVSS VL: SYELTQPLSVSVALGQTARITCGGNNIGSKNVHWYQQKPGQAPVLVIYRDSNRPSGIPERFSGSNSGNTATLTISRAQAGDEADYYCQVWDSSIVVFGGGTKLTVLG ... 120
ROR2-240 full length human IgG1 antibody (antibody, V domains shown, also called clone #240 IgG1) VH: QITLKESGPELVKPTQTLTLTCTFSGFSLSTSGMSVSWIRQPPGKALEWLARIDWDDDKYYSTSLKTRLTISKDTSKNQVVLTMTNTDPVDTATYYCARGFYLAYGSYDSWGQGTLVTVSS VL: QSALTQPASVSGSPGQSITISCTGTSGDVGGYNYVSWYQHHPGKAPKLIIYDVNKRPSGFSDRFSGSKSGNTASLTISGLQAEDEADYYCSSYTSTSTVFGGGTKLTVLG ... 5

Would you kindly look at the next entry?
Query: Read off the recorded binding intensity for ROR2-90 full length human IgG1 antibody (antibody, V domains shown, also called clone #90; antibody #90) VH: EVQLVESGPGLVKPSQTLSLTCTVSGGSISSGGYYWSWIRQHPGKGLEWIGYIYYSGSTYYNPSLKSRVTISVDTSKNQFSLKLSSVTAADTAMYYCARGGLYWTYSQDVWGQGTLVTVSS VL: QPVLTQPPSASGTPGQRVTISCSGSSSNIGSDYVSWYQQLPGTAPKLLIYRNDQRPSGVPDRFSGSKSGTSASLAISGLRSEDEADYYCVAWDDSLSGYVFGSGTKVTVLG
Response: 27
